The next entries give measured IC50 for UniProt:P07861.
Sequence (P07861 whole entry): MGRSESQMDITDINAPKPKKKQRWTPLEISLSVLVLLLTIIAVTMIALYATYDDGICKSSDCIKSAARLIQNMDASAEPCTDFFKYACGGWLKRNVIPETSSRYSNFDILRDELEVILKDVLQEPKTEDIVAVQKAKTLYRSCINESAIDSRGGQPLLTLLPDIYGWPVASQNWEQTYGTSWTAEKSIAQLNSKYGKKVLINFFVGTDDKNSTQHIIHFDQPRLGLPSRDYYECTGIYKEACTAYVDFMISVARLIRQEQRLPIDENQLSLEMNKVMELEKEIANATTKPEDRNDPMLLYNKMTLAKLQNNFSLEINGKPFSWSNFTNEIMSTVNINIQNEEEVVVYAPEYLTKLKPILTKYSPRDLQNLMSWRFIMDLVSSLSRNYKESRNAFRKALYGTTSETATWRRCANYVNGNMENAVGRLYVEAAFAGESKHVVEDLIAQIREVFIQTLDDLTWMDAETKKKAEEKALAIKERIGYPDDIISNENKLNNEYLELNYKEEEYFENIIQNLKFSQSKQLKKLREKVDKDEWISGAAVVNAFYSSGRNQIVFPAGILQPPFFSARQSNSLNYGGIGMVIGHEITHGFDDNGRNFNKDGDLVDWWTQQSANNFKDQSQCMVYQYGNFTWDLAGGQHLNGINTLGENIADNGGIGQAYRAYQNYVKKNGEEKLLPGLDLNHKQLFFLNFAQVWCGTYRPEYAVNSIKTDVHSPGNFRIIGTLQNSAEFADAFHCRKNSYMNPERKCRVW

| Molecule | Readout Units | Relation Qualifier | IC50 |
| --- | --- | --- | --- |
| NCCCC[C@@H](NC(=O)C1CCCCCCC(CS)C(=O)N1)C(=O)O (stereo not given in full) | nM | = | 14 |
| O=C1NC(C(=O)NCCOCCO)CCCCCCC1CS (stereo not given) | nM | = | 84 |
| O=C1NC(C(=O)Nc2cccnc2)CCCCCCC1CS (stereo not given) | nM | = | 59 |
| O=C1NC(C(=O)N2C[C@H](O)C[C@H]2C(=O)O)CCCCCCC1CS (single isomer, unassigned; (-)) | nM | = | 0.8 |
| O=C1NC(C(=O)O)CCCCCCC1CS (single isomer, unassigned; (-)) | nM | > | 1000 |
